Experiment: TLR3 IRF3 reporter activation blockers – cell-based, poly I:C stimulus, luciferase, 10K MLSCN set, primary screen (AID 602277)
Conditions: HEK293-TLR3 RL24 IRF3 luciferase reporter, at 10 µM, stronger effect = higher value
Quantity measured: inhibition (%)
Lab book: enter the figure in %, no units written.

Examples from the recorded data:
Nc1nc2n(n1)C(c1cccc(Cl)c1)CC(c1ccc(F)cc1)N2 (stereo unspecified) :: 25.8
O=C(NCC1CCCO1)c1cccc(N2C(=O)C3C4C=CC(C4)C3C2=O)c1 (stereo unspecified) :: 10.8
COCCNC(=O)CSc1nc(-c2ccc(OC)c(OC)c2)cc(C(F)(F)F)n1 :: 14.6

What does the record list as inhibition for CCn1c(CCNC(=O)c2cccs2)nnc1SCC(=O)c1ccc(OC)cc1 ?
-7.83

Note, next up: CCN1CCN(Cc2ccc(NC(=O)Nc3ccccc3)cc2)CC1
-14.4

Same lookup for CCOC(=O)c1sc(NC(=O)CNC(=O)Cn2cnc3sc(C)c(C)c3c2=O)nc1C , please.
24.7

====

Target: Voltage-gated potassium channel subunit beta-2 (Rattus norvegicus)
Experiment: enhancers of rat Kvbeta2 NADPH turnover – biochemical, NADPH fluorescence, primary screen (AID 623);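 further: fluorescence intensity change per second fitted from 20 to 320 s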
Conditions: Recombinant KvBeta, NADPH fluorescence decrease slope, 10 min; at 10 µM; stronger effect = lower value
Quantity measured: NADPH fluorescence slope
When you answer, write just the number.

Example results:
CC(C)(C)c1ccc(-c2nnc(SCCC#N)n2C2CCCC2)cc1 :: -3e-05
CCOC(=O)N1CCN(C(=O)CN(Cc2ccccc2)S(=O)(=O)c2ccc(OC)c(C)c2)CC1 :: 1e-05
Cn1cccc1Cc1nnc(SCC(N)=O)n1-c1ccc(F)cc1 :: -3.1e-05
CN1CCN(C(=O)C2(NC(=O)Nc3cccc(F)c3)CCCCC2)CC1 :: -4.2e-05

Entry Cc1cc2ccccc2n1CCNC(=O)C1CC1 : reported NADPH fluorescence slope = ?
-3.8e-05

Record: Cc1nnc(NC(=O)c2ccccc2F)s1
5.1e-06

Next compound up: CN(C)c1nc(Nc2ccc(Cl)cc2)nc(OCC#N)n1
1.7e-05

// repeat for COc1ccc(-c2noc(COc3ccc(Cl)c(C)c3)n2)cc1 and report
-4.1e-05

// query: COc1ccccc1-n1nnnc1SCc1cc2c(cc1Br)OCO2
-4.6e-05

Again, but for Cc1ccc(-c2[nH]nc3c2C(c2ccc(OC(=O)N4CCOCC4)cc2)C(C#N)=C(N)O3)cc1 (stereo unspecified)
-4.2e-05

Queued: Cc1ccc(C)c(-c2nc3cc(N)ccc3o2)c1
-3e-06

====

Molecular target: Muscarinic acetylcholine receptor M4 (Homo sapiens) (UniProt P08173)
Sequence (P08173 whole entry, looked up): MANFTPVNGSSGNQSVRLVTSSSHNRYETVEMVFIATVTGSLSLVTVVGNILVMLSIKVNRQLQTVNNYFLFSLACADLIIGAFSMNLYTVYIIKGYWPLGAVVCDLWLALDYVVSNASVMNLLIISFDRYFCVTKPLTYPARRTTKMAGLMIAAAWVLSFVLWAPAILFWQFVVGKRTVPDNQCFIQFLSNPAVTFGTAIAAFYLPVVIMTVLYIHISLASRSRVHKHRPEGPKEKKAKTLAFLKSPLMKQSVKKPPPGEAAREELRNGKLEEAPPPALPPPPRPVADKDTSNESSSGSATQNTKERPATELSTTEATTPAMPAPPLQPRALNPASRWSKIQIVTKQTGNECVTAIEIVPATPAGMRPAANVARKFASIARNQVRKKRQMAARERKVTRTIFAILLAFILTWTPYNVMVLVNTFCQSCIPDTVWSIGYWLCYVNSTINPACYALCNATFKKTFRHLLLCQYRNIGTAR
Test: M4-linked GIRK flux change, two-sided – cell-based, HEK293 M4/GIRK, thallium flux, BTC-AM, M4 allosteric agonist project, primary screen (AID 625);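 further: thallium influx through GIRK channels coupled to M4 in HEK293 cells with BTC-AM dye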
Details: at 10 µM, actives lie on both sides
Quantity measured: fluorescence slope
No unit in the answer, please; the number alone is enough.

Solved entries:
CCOc1cc(N2CCOCC2)c(OCC)cc1NC(=O)COC(=O)CCc1c[nH]c2ccccc12 :: 0.00571
COc1cccc(NC(=O)COc2ccccc2C(N)=O)c1 :: 0.00613
COc1ccc(OCc2cccc(C(=O)O)c2)cc1 :: 0.00513
CC1(C)CC(=O)C2=C(C1)Nc1nc(SCCN3CCOCC3)[nH]c(=O)c1C2c1cccs1 (stereo unspecified) :: 0.00647

Record request: fluorescence slope value, item Cc1ccc(S(=O)(=O)N2CCOCC2)cc1C(=O)Nc1ccccn1
0.00587

Okay, and COc1ccc(OC)c(C(=O)c2nc3c(n2O)CCCCC3)c1 ?
0.00381
